The reported measurements were obtained from patent US20120277142A1.

Biological target: T1, TNF-α (UniProt P01375 77-233, limits assumed)
T1 construct: also called tumor necrosis factor; ligand
T1 sequence (P01375 77-233 limits assumed): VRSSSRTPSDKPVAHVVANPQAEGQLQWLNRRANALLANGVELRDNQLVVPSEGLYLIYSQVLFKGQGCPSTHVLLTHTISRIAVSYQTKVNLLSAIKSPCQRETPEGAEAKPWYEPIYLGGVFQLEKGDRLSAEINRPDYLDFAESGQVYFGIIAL
Assay: competition ELISA: sample vs plate-bound TNFRI190 for TNF-α, from IC50, relative to wild-type TNFRI105
quantity-name: Relative Affinity for Ligand (%)

Some binders with known Relative Affinity for Ligand (%) results, for comparison:
binder	Relative Affinity for Ligand (%)
TNFRI105-S46 (receptor, Met-TNFRI105 superlead mutant made in E. coli) MDSVCPQGKYIHPQNNSICCTKCHKGTYVYNDCPGPGQDTDCRECESGSFTAIENFLPGCLSCSKCRKEMGQVEISSCTVDRDTVCGCRKNQYRHYWSENLFQCFN	547
TNFRI105-S31 (receptor, Met-TNFRI105 superlead mutant made in E. coli) MDSVCPQGKYIHPQNNSICCTKCHKGTYVYNDCPGPGQDTDCRECESGSFTAIENFLPACLSCSKCRKEMGQVEISSCTVDRDTVCGCRKNQYRHYWSENLFQCFN	453
TNFRI105-S41 (receptor, Met-TNFRI105 superlead mutant made in E. coli) MDSVCPQGKYIHPQNNSICCTKCHKGTYVYNDCPGPGQDTDCRECESGSFTAHENFLPACLSCSKCRKEMGQVEISSCTVDRDTVCGCRKNQYRHYWSENLFQCFN	403
TNFRI105-S47 (receptor, Met-TNFRI105 superlead mutant made in E. coli) MDSVCPQGKYIHPQNNSICCTKCHKGTYVYNDCPGPGQDTDCRECESGSFTAMENFLPGCLSCSKCRKEMGQVEISSCTVDRDTVCGCRKNQYRHYWSENLFQCFN	497

[P] TNFRI105-S36 (receptor, Met-TNFRI105 superlead mutant made in E. coli) MDSVCPQGKYIHPQNNSICCTKCHKGTYVYNDCPGPGQDTDCRECESGSFTAMENFLPACLSCSKCRKEMGQVEISSCTVDRDTVCGCRKNQYRHYWSENLFQCFN
[Q] Met-TNFRI105 (receptor, also called Wild-type (TNFRI105)) MDSVCPQGKYIHPQNNSICCTKCHKGTYLYNDCPGPGQDTDCRECESGSFTASENHLRHCLSCSKCRKEMGQVEISSCTVDRDTVCGCRKNQYRHYWSENLFQCFN
Exam item: Thinking about recorded Relative Affinity for Ligand (%) values, which is higher, P or Q ? Your answer should be the label of the entry you select.
Marked response: P
(P: 459%, Q: 100%)
